System: HEK293T;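 note: lentiviral eGFP-IRES-mCherry reporter pool sorted by FACS 96 h post-transduction, gated on mCherry-high cells, Illumina read counts normalized per million, median across four biological replicates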
EXPERIMENTAL DETAILS: median enrichment of reporter reads in eGFP-reduced (low/intermediate) vs eGFP-high sorted cells (eGFP-extension fusion abundance) (ratio); higher = stronger loss of eGFP-fusion protein abundance (more destabilising extension)

{"SUBSTANCE": "RILPNALSENAELPFLFASFIFNIHNVVCLKVGFEVCAAYSFHLSPRFPSL [RRAGA]", "median enrichment": 15.7}
{"SUBSTANCE": "RKINYTFYSPPEDHCPKAGSICSNNAAFTSSVHLCS [OR4M1]", "median enrichment": 10.5}
{"SUBSTANCE": "LHSCTPISRAASLPSRGLQQCAWLAAAPPRAPWPRRCQPT [THSD4]", "median enrichment": 7.14}
{"SUBSTANCE": "SVDTPAPVGMDGPDFMASGTWAQRGACGRGWENKVQGRDQTAASLYMPS [ITIH3]", "median enrichment": 32.4}
{"SUBSTANCE": "CCQDSCALRCK [MT1X]", "median enrichment": 0.374}
{"SUBSTANCE": "EKHLKC [FAN1]", "median enrichment": 0.297}
{"SUBSTANCE": "AAAAAAAAA [Ala09]", "median enrichment": 8.59}
{"SUBSTANCE": "KKNVEAIGLLGG [Degron KLHDC2]", "median enrichment": 5.08}
{"SUBSTANCE": "GGCRRRPSWCRQAGHRDPGPAQETAFFSRYNRRQKKRVPPLPNRSFWQGVPNAKTQRCGWHLLPHSFKIVKKC [FOXF1]", "median enrichment": 9.48}
{"SUBSTANCE": "REAWPR [ELOVL1]", "median enrichment": 0.427}
{"SUBSTANCE": "LRISQG [ESRRB]", "median enrichment": 1.67}
{"SUBSTANCE": "GGGSRSDQLIAHMLCLDME [HNRNPAB]", "median enrichment": 3.08}
{"SUBSTANCE": "QACPAVNLHLEP [SEC16A]", "median enrichment": 0.624}
{"SUBSTANCE": "EKSYMAKRSRSKFRSHSQGNQYLPI [SNX24]", "median enrichment": 1.3}
{"SUBSTANCE": "YASHLASWVCRSSRLAPSMYPGEIPARHPPPGPG [LSP1]", "median enrichment": 4.74}
{"SUBSTANCE": "SVCAGDQINRLGCAK [NOSIP]", "median enrichment": 1.17}
{"SUBSTANCE": "RGDAVGLAEPRFSHQQGECWPDTSEDPGLVIICLGGTG [GMPPB]", "median enrichment": 7.69}
{"SUBSTANCE": "LPNFTSSGESLTLNQRPSTALAPQTSP [ABCB5]", "median enrichment": 0.355}
{"SUBSTANCE": "YPSVLHTARGPRMPRPPLAPAGREPDHLPC [CHI3L1]", "median enrichment": 2.05}
{"SUBSTANCE": "RSSPTKGPPETPGTISVSSHQTLALFLLLFGDLHCQNYQFQVNFVGEFPPPPSSGSPRSNVPPATFPLWPPAELICLSHRSWC [S100A7A]", "median enrichment": 7.95}
{"SUBSTANCE": "QCITECGHQPRAAW [FOXJ2]", "median enrichment": 0.515}
{"SUBSTANCE": "LILYPSAMATRRTNNCPPLEVRLIEALDPNKIRIRICNGPGAVPHACHPSTLGG [RBPMS]", "median enrichment": 3.14}
{"SUBSTANCE": "SIFFYQEG [PTEN]", "median enrichment": 2.76}
{"SUBSTANCE": "QPWGWTVDPTSLREGGMAGCEDNSS [POLR3H]", "median enrichment": 0.421}
{"SUBSTANCE": "LKLQLNRGSRKLLSLRGGV [MIP]", "median enrichment": 14.1}
